Give measured IC50 for each item. Keep answers brief.
# targetOrSystem: activated human blood coagulation factor X (Homo sapiens)
# Construct: purchased Enzyme Research Co
# Sequence (P00742 235-488 limits assumed): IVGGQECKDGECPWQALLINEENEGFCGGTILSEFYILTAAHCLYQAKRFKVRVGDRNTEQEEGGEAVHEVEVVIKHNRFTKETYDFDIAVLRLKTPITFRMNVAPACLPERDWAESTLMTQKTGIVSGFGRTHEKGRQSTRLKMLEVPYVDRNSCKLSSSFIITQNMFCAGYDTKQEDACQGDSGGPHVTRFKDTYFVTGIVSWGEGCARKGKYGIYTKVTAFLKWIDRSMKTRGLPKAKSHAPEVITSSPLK
# Sequence (P00742 41-179 partner limits assumed): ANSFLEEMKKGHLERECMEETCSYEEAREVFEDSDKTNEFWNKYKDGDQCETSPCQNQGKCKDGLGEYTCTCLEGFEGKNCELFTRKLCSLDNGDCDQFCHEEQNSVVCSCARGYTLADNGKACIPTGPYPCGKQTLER
# protocolDescription: Determination of activity of inhibiting the activated blood-coagulation factor X (chromogenic substrate, initial rate)
# Format: biochemical
# experimentalSetup: negative logarithm of concentration inhibiting 50% of initial rate; tris hydrochloride buffer pH 8.4, room temperature; read-out: Activity of inhibiting activated blood coagulation factor X (pIC50) (converted)

Below, 3 molecules whose answers are already recorded.
CC(=N)N1CCC(Oc2ccc(C(=O)NCCOc3cc(C(=N)N)ccc3CCP(=O)(O)O)cc2)CC1 :: 2.51 nM
N=C(N)c1ccc(CCP(=O)(O)O)c(OCCNC(=O)C2CCN(c3ccncc3)CC2)c1 :: 3.16 nM
N=C(N)c1ccc(CCP(=O)(O)O)c(OCCNC(=O)c2ccc(C(=O)N3CCCC3)cc2)c1 :: 2.51 nM

// moving on: another record for IC50
Field IC50 (entry N/C(=N/O)c1ccc(CCP(=O)(O)O)c(OCCNC(=O)c2ccc(C(=O)N3CCCC3)cc2)c1 ) reads 79.4 nM

----------
# targetOrSystem: human thrombin (Homo sapiens)
# Construct: human thrombin (a product of SIGMA Co.); purchased SIGMA Co
# protocolDescription: Determination of thrombin-inhibiting activity (S-2238 chromogenic substrate, initial rate)
# Format: biochemical
# experimentalSetup: negative logarithm of concentration inhibiting 50% of initial rate; tris hydrochloride buffer pH 8.4, room temperature; read-out: Thrombin-inhibiting activity (pIC50) (converted)
valueKind: IC50

N=C(N)c1ccc(CCP(=O)(O)O)c(OCCNC(=O)C2CCN(c3ccncc3)CC2)c1 [Compd. of Ex. 1] :: > 316 µM

// for each compound below, give its IC50
1. CC(=N)N1CCC(Oc2ccc(C(=O)NCCOc3cc(C(=N)N)ccc3CCP(=O)(O)O)cc2)CC1 [Compd. of Ex. 2]
2. N=C(N)c1ccc(CCP(=O)(O)O)c(OCCNC(=O)c2ccc(C(=O)N3CCCC3)cc2)c1 [Compd. of Ex. 3]
3. N/C(=N/O)c1ccc(CCP(=O)(O)O)c(OCCNC(=O)c2ccc(C(=O)N3CCCC3)cc2)c1 [Compd. of Ex. 6]

1: > 100 µM; 2: 39.8 µM; 3: > 100 µM
